assay: yeast display, Sf9 membrane polyspecificity reagent, FACS + sequencing; frameworks hold sequencing errors
MEASURED QUANTITY: polyreactivity (PSR sort gate)

Previously resolved entries follow.
- QVQLVESGGGLVQAGGSLRLSCAASGSIFYDYTMGWYRQAPGKERELVAAINSGGSTNYADSVKGRFTISRDNAKNTVYLQMNSLKPEDTAVYYCAAVRYNSRVSTTPSEMYYLGQGTQVTVSS: low polyreactivity
- QVQLVESAAGLVQAGGSLRLSCAASGFIFHCNAMGWSRQAPGKERELVAAISDTADITHYADSVKGRFTISRDNAKNTVYLQMNSLKPEDTAVYFCNAGSGVQVVWYKPYREYEYWGQGTQVTVSS: low polyreactivity
- QVQLVESGGGLVQAGGSLRLSCAASGFTFQYYAMGWYRQAPGKERELVATITTSGGNTYYADSVKGRFTISRDNAKNTVYLQMNSLKPEDTAVYYCAARNARYVHTMEYWGQGTQVTVSS: high polyreactivity
- QVQLVESGGGLVQAGGSLRLSCASSGRTFLHNAMGWYRQAPGKERELVAAISSRGGSTYYADSVKGRFTISRDNAKNTVYLQMNSLKPEDTAVYYCAADLVVYRYDYWGQGTQVTVSS: high polyreactivity
- QVQLVESGGGLVQAGGSLRLSCAASGSTFYRYAMGWYRQAPGKERELVAVITSGGSTNYADSVKGRFTISRDNAKNTVYLQMNSLKPEDTAVYYCAKEDGYSQLKTTFDEAGYGSWGQGTQVTVSS: low polyreactivity
- QVQLVESGGGLVQAGGSLRLSCAASGRIFVYNVMGWYRQAPGKERELVADISVGGGSTYYADSVKGRFTISRDNAKNTVYLQMNSLKPEDTAVYYCAASYYSGQSVRDDIMYYWGQGTQVTVSS: low polyreactivity
- QVQLVESGGGLVQAGGSLRLSCAASGRTFVNNAMGWYRQAPGKERELVASIRYIGGSTYYADSVKGRFTISRDNEKNTVYLQMNSLKPEDTAVYYCAALAGRRPYDYWGQGTQVTVSS: high polyreactivity
- QVQLVESGGGLVQAGGSLRLSCAASGSIFPYYAMGWYRQAPGKEWEFVAAISRRGGSTNYADSVKGRFTISRDTAKNTVYLQMNSLKPEDTAVYYCGKYTSYSRGYDYWGQGTQVTVSS: high polyreactivity

Enquiry: What value of measured polyreactivity (PSR sort gate) is listed for QVQLVESVGGLVQAGGSLRLSCAASGFTFGRYAMGWYRQAPGKERELVAAISFSGGRTYYADSVKGRFTISRDNAKNTVYLQMNSLKPEDTAVYYCAARRRQEHVGRSSYARYDYWGQGTQVTVSS ?
Return: high polyreactivity

Enquiry: Requested field: polyreactivity (PSR sort gate). Item: QDQLVESGGGLVQAGGSLRLSCAASGFILNWYAMGVYRQAPGKERELVAAISWTTSDTYYADSVKGRFTISRDYAKNTVYLQMNSLKPEDTAVYYCNAKFYAYYVTFVLHYDYWGHGTQVTVSS
Return: low polyreactivity

Enquiry: Which polyreactivity (PSR sort gate) value is on record for QVQLVESGGGLVQAGGSLRLSCAASGRTFPYYTMGWYRQAPGKERELVAAINSSGGRTYYADSVKGRFTISRDNAKNTVYLQMNSLKPEDTAAYYCAKRGYYKYDWGQGTQVTVSS ?
Return: high polyreactivity

----------
assay: yeast display, Sf9 membrane polyspecificity reagent, FACS + sequencing; frameworks hold sequencing errors
MEASURED QUANTITY: polyreactivity (PSR sort gate)

Below: 5 sequences and their reported polyreactivity (PSR sort gate).
* QLQLVETGGGLVQAGGSLRLSCAASGFTLYSYAMGWYRQDPGKEREFVADGSTYYADSVKGRFTISRDNAKNTVYLQINSLKPEDTAVYYCAADPWIYVQSYGYWGQGTQVTVSS | low polyreactivity
* QVQLVESGAGLFQAGGSLRLSCAASGFTFWWYAMGWYRQAPGKQRELVASISSGGSTNYADSVKGRFTISRDNANNTVYLQMNSLKQVDTAVFYCARRMLYSERYSARWQYVYWGQGTQVNVSS | high polyreactivity
* QVQRVESGGGLVQAGGSLRLSCAASGRIFRYYAMGWYRQAPGKERELVAAISRSSGSTYYADSVKGRFTISRDNAKNTVYLQMNSLKPEDTAVYYCATAFYSYGRYPQSYYWGQGTQVTVSS | high polyreactivity
* QVQLVESGGGLVQAGGSLRLSCAASGSIFLYYTMGWYRQAPGKEREMVAAITSGSSTNYADSVKGRFTISRDNAKNTVYLQMNSLKPEDTAVYYCATQYTLSYPSIDFDYWGQGTQVNVSS | low polyreactivity
* QVQLVESGGGLFQAGGSLRLSCAASGSTFIYYVMGWYRQAAGKVWELVAAISTSGGRTYYADSVKGRYTISRDNAMNTVSLLMNSLKPVVTAVYYCAAVARTNGSIKFESWGQGTQVTVSS | high polyreactivity

Kindly review the next sequence as well.
Enquiry: Need polyreactivity (PSR sort gate), item QVQLVESGGGLVQAGGSLRLSCAASGSIFARYAMGWYRQAPGKERELVAAISGSGASTYYADSVKGRFTISRDNAKNTVFLQMNSLKPEDTAVYYCARPFLRRPTYRFESGYGYWGQGTQVTVSS
Return: high polyreactivity

----------
assay: yeast display, Sf9 membrane polyspecificity reagent, FACS + sequencing; frameworks hold sequencing errors
MEASURED QUANTITY: polyreactivity (PSR sort gate)

• QVQLVESGGGLVHAGGSLRLSCAASGFTCPYYPMGWYRQAPGKERELVDVISRSGGSTYYADSVKGRFTISRDNAKNTVYLQMNSLKPEDTAVYYCAKRYSLTGGKRTGYYWGQGTQVTVSS = high polyreactivity
• QVQLVESGGGLVQAGGSLRLSCAASGSIFGWYAMGWYRQAPGKDWELVAASRRGGSTNYADSVKGRFTISRDNAKNTVYFQMNSLIPEATAVYYCAAGKSGYSKRIFRYSFDYWGQGTQVTVSS = high polyreactivity
• QVQLVESGGGLVQAGGSLRLSCAASGFIFRYYAMGWYRQAPGKERELVAAISWSGGSTYYADSVKGRFTISRDNAKNTVYLQMNSLKPEDTAVYYCNAVTTYGEYDYWGHGTQVTVSS = high polyreactivity
• QVQLVESGGGLVQAGGSLRLSCAASGSTFVQNDMGWYIPAPGKERELVAAISRTGGSTYYADSVKGRFTISRDNAKNTVYLQMNSLKPEDTAVYYCARRYYYQYRYDYWGQGTQVTVSS = high polyreactivity
• QVQLVESGVGLVQAGGSLRLSCAASGSIFGFYAMGWYRQAPGKERELVAAITSGDSTHYADSVKGRFTISRDNAKNTVYLQMNSLKPEDTAVYYCAASAPYRYYRSAYYYWGQGTQVTVSS = low polyreactivity

Enquiry: Value lookup for polyreactivity (PSR sort gate); key = QVQLVESGGGLVQAGGSLRLSCAASGSIFLVYALGWYRQAPGKERELVATITRGGGTYYADSVKGRFTISGDNAKNTVYLQMNSLKPEDTAVSYCAYPLSRTWGNYLAWSYPRDDSWGQGTQVTVSS
Return: high polyreactivity

Enquiry: Tell me the measured polyreactivity (PSR sort gate) of QVQLVESGGGLVQAGGSLRLSCAASGSTFTSYAMGWYRQAPGKERELVAAITRNGGTTYYADSVKGRFTISRDNAKNTVYLQMNSLKPEDTAVYYCNAPHYYYITSDRRFDYWGQGTQVTVSS , please.
Return: low polyreactivity

----------
test: yeast display, Sf9 membrane polyspecificity reagent, FACS + sequencing; frameworks hold sequencing errors
MEASURED QUANTITY: polyreactivity (PSR sort gate)

// worked examples, polyreactivity (PSR sort gate) included
• QVQLVESGGGLVQAGGSLRLSCAASGITFGRNTKGWYRQAPGKERELVAAIDSGGNTYADSVKGRFTISRDNAKNTVYLQMNSLKPEDTAVYYCNAGYVHSFDYWGQGTQVTVSS = low polyreactivity
• QVQLVESGGGLVQAGGSLRLSCAASGSIFGPYAMGGYRQAPGKERELVAAISSGGSTNYADSVKGRFTISRDNAKNTVYLQMNSLKPEDTAVYYCAADRKYFYLWLDQEHRYYWGQGTQVTVSS = low polyreactivity
• QVQLEESGGGLVQAGGSLRLSCAASGRIFWYYDMGWYRQAPGKERELVAAISQRGGSTYYADSVKGRFTISRDNAKNTVYLQMNSLKAEDTAVYYCAKRNPYWATREYWGQGTQVTVSS = high polyreactivity
• QVQLVESGGGLVQAGGSLRLSCAASGFTFWRYAMAWYRQAPWKERDLVAAISRTGGRTYYADSVKGRFTISRDNAKNTVYLQMNSLKPEDTAVDYCAAVKYETYRYNYDYWGQGTQVTVSS = high polyreactivity

Enquiry: polyreactivity (PSR sort gate) for QVQHVESGGGLVQAGGSLRLSCAASGSTFLYYAMGWSRQAPGKERELVARITTRVGRTYYADSVKGRFTISRDNAKNTVYLQMNSLKPEDTAVYYCAAYPDYSYYYWGQGTQVTVSS ?
Return: high polyreactivity
